Measured inhibition accompanies every entry in the list below.
Molecular target: Neuronal acetylcholine receptor; alpha4/beta2 (Homo sapiens, UniProt P17787+P43681)
Experiment: Antagonist activity at alpha4beta2 nAChR (unknown origin) expressed in HEK293 cells assessed as reduction of nicotine-induced ERK1/2 phosphorylation at 10 uM treated 30 mins before nicotine addition by Western blotting
Assay type: cell-based
Quick reminder: number only, in %, skip the unit.

>>> recorded_measurement("CN1CCC[C@H]1c1ccc[n+](CCCCCCCCCCCCNCC2CCc3ccc(O)cc3O2)c1 (mixture of isomers)")
57
>>> recorded_measurement("CN1CCC[C@H]1c1ccc[n+](CCCCCCNCC2CCc3ccc(O)cc3O2)c1 (mixture of isomers)")
65

The reported Neuronal acetylcholine receptor; alpha4/beta2 (Homo sapiens, UniProt P17787+P43681) inhibition of CN1CCC[C@H]1c1ccc[n+](CCCCCCCCCCNCC2CCc3ccc(O)cc3O2)c1 (mixture of isomers) is 57

The reported Neuronal acetylcholine receptor; alpha4/beta2 (Homo sapiens, UniProt P17787+P43681) inhibition of CN1CCC[C@H]1c1ccc[n+](CCCCCNCC2CCc3ccc(O)cc3O2)c1 (mixture of isomers) is 55
